ASSAY_REMARKS: recombinant barcode read abundance after kanamycin selection (control-corrected) (log10(CPM+1)); higher = more efficient recombination; sequences stand for … in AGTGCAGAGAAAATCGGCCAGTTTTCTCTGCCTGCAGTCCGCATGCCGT…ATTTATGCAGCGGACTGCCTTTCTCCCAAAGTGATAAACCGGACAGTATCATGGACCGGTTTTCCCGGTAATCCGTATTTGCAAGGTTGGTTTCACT; site = the 11-nt target
Reported recombinant barcode read abundance (log10) is given for each of the following sequences.
The reply should be a number, written without any unit.

Recorded recombinant barcode read abundance (log10), per entry:
For GAGGCCTCCTGGGTTCTAACCTGTTGCCAGG [GAGGCCTCTTG_LTGcore_CC_RTGcore_CC] (site GAGGCCTCTTG) (LTG core: CC, RTG core: CC) , what is its reported recombinant barcode read abundance (log10)?
0.215

For GAGTCCAGGTGGGTTCTAACCTGTTGCGTCC [GAGTCCACTAC_LTGcore_GG_RTGcore_GG] (site GAGTCCACTAC) (LTG core: GG, RTG core: GG) , what is its reported recombinant barcode read abundance (log10)?
0.0822

For AAACAGTGCTGGGTTCTAACCTGTTGCCTAG [AAACAGTCTAG_LTGcore_GC_RTGcore_CT] (site AAACAGTCTAG) (LTG core: GC, RTG core: CT) , what is its reported recombinant barcode read abundance (log10)?
0.16

For GGTGCCCCTTGGGTTCTAACCTGTTGCCGCT [GGTGCCCCTCG_LTGcore_CT_RTGcore_AG] (site GGTGCCCCTCG) (LTG core: CT, RTG core: AG) , what is its reported recombinant barcode read abundance (log10)?
0.0402

Kindly consider the entry below.
For CGCGCCCCTTGGGTTCTAACCTGTTGCGGAG [CGCGCCCCTCC_LTGcore_CT_RTGcore_CT] (site CGCGCCCCTCC) (LTG core: CT, RTG core: CT) , what is its reported recombinant barcode read abundance (log10)?
0.131

---

ASSAY_REMARKS: recombinant UMI read abundance after kanamycin selection (control-corrected) (log10(CPM+1)); higher = more efficient recombination; extreme values may be limits of the assay; sequences stand for … in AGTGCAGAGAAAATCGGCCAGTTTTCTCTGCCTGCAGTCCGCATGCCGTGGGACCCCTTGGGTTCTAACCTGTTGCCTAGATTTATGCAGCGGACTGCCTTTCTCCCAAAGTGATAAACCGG…AGGTTGGTTTCACT; site = the 11-nt donor
Label rule, in plain words: recombinant UMI read abundance (log10) of 2 and up is yes, under 2 is no.

Worked cases, answers included:
Confirm if recombinant UMI read abundance (log10) reported for the sequence AGAGTATCATGGACCGGTTTTCCCGGTAATCCGTATTTGCA (site AGAGTATCTTG) is 2 or above.
yes

Confirm if recombinant UMI read abundance (log10) reported for the sequence CGCCCTACATGGACCGGTTTTCCCGGTAATCCGTATTTGCT (site CGCCTTACTAG) is 2 or above.
no

Confirm if recombinant UMI read abundance (log10) reported for the sequence CCGTTTACATGGACCGGTTTTCCCGGTAATCCGTATTTGTT (site CCGTTTACTAA) is 2 or above.
no

Confirm if recombinant UMI read abundance (log10) reported for the sequence ATGTATGCATGGACCGGTTTTCCCGGTAATCCGTATTTGGC (site ATGTACGCTGC) is 2 or above.
no

Confirm if recombinant UMI read abundance (log10) reported for the sequence TTAGTTCCATGGACCGGTTTTCCCGGTAATCCGTATTTGTT (site TTAGTTCCTAA) is 2 or above.
no

Confirm if recombinant UMI read abundance (log10) reported for the sequence GTTAGAACATGGACCGGTTTTCCCGGTAATCCGTATTTGCC (site GTTAGAACTGA) is 2 or above.
no

Confirm if recombinant UMI read abundance (log10) reported for the sequence GATTAGACATGGACCGGTTTTCCCGGTAATCCGTATTTGAC (site GATTTGACTGT) is 2 or above.
no

Proceed to the following item.
Confirm if recombinant UMI read abundance (log10) reported for the sequence AGATAGGCATGGACCGGTTTTCCCGGTAATCCGTATTTGCT (site AGACAGGCTAG) is 2 or above.
yes

---

ASSAY_REMARKS: recombinant barcode read abundance after kanamycin selection (control-corrected) (log10(CPM+1)); higher = more efficient recombination; sequences stand for … in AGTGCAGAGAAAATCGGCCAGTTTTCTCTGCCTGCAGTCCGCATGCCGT…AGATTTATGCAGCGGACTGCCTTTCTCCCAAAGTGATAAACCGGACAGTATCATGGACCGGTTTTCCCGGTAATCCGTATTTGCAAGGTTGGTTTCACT; site = the 11-nt target
Label rule, in plain words: recombinant barcode read abundance (log10) of 0.04 and up is satisfied, under 0.04 is not satisfied.

Worked cases, answers included:
Confirm if recombinant barcode read abundance (log10) reported for the sequence GAGTTTCCTTGGGTTCTAACCTGTTGCAG (site GAGTTTCCTCT) is 0.04 or above.
satisfied

Confirm if recombinant barcode read abundance (log10) reported for the sequence TAATCGACTTGGGTTCTAACCTGTTGCCT (site TAATCGACTAG) is 0.04 or above.
satisfied

Confirm if recombinant barcode read abundance (log10) reported for the sequence CTCTAGACTTGGGTTCTAACCTGTTGCCA (site CTCTAAACTTG) is 0.04 or above.
satisfied

Confirm if recombinant barcode read abundance (log10) reported for the sequence AGGAACCCTTGGGTTCTAACCTGTTGCTA (site AGGAACCCTGA) is 0.04 or above.
not satisfied

Confirm if recombinant barcode read abundance (log10) reported for the sequence GTAGAGTCTTGGGTTCTAACCTGTTGCCT (site GAAGAGTCTAG) is 0.04 or above.
satisfied

Confirm if recombinant barcode read abundance (log10) reported for the sequence TCGGCGACTTGGGTTCTAACCTGTTGCCT (site TCGGCGACTAG) is 0.04 or above.
not satisfied

Others:
Confirm if recombinant barcode read abundance (log10) reported for the sequence GGATTGTCTTGGGTTCTAACCTGTTGCTT (site GGCTAGTCTAA) is 0.04 or above.
satisfied

Confirm if recombinant barcode read abundance (log10) reported for the sequence CGGTAGTCTTGGGTTCTAACCTGTTGCTT (site CGGTAGTCTAA) is 0.04 or above.
satisfied

Confirm if recombinant barcode read abundance (log10) reported for the sequence GTAACCTCTTGGGTTCTAACCTGTTGCCC (site GTAACCTCTAG) is 0.04 or above.
satisfied

Confirm if recombinant barcode read abundance (log10) reported for the sequence CCGGAGCCTTGGGTTCTAACCTGTTGCCT (site CCGAAGCCTAG) is 0.04 or above.
satisfied

Confirm if recombinant barcode read abundance (log10) reported for the sequence GGGGCGTCTTGGGTTCTAACCTGTTGCTT (site GGGGCGTCTAA) is 0.04 or above.
satisfied

Confirm if recombinant barcode read abundance (log10) reported for the sequence CCTTGGACTTGGGTTCTAACCTGTTGCAA (site CCTTGGACTTT) is 0.04 or above.
satisfied

Confirm if recombinant barcode read abundance (log10) reported for the sequence GGCTCCTCTTGGGTTCTAACCTGTTGCCA (site GGTTCATCTTG) is 0.04 or above.
not satisfied

Confirm if recombinant barcode read abundance (log10) reported for the sequence GACCTACCTTGGGTTCTAACCTGTTGCCT (site GACGTACCTAG) is 0.04 or above.
satisfied

Confirm if recombinant barcode read abundance (log10) reported for the sequence GTGCACACTTGGGTTCTAACCTGTTGCCA (site GTGCAAACTAG) is 0.04 or above.
satisfied

Confirm if recombinant barcode read abundance (log10) reported for the sequence GAATGTTCTTGGGTTCTAACCTGTTGCTT (site GAATATTCTAA) is 0.04 or above.
not satisfied

---

ASSAY_REMARKS: recombinant UMI read abundance after kanamycin selection (control-corrected) (log10(CPM+1)); higher = more efficient recombination; extreme values may be limits of the assay; sequences stand for … in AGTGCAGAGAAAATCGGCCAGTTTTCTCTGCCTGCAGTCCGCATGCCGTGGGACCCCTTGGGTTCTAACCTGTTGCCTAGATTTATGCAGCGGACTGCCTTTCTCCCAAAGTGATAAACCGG…AGGTTGGTTTCACT; site = the 11-nt donor
Label rule, in plain words: recombinant UMI read abundance (log10) of 0.5 and up is t, under 0.5 is f.

Worked cases, answers included:
Confirm if recombinant UMI read abundance (log10) reported for the sequence GAGCACACATGGACCGGTTTTCCCGGTAATCCGTATTTGGA (site GAGCACACTTC) is 0.5 or above.
t

Confirm if recombinant UMI read abundance (log10) reported for the sequence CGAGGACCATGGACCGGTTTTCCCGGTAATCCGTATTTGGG (site AGAGGACCTCC) is 0.5 or above.
f

Confirm if recombinant UMI read abundance (log10) reported for the sequence GCCACGTCATGGACCGGTTTTCCCGGTAATCCGTATTTGTA (site GCCACGGCTTA) is 0.5 or above.
f

Proceed to the following item.
Confirm if recombinant UMI read abundance (log10) reported for the sequence ATGTAGTCATGGACCGGTTTTCCCGGTAATCCGTATTTGGC (site ATGTAGACTGC) is 0.5 or above.
t

Origin of the recorded values: the supplement of paper PMC11208160
